The following compounds are listed with their measured IC50 values.
# target-of-assay: Ba/F3 cells with EGFR exon 20 NPG Ins D770_N771 (Homo sapiens, UniProt P00533, INS770NPG)
# Sequence (P00533 with tags, fused parts or gaps INS770NPG): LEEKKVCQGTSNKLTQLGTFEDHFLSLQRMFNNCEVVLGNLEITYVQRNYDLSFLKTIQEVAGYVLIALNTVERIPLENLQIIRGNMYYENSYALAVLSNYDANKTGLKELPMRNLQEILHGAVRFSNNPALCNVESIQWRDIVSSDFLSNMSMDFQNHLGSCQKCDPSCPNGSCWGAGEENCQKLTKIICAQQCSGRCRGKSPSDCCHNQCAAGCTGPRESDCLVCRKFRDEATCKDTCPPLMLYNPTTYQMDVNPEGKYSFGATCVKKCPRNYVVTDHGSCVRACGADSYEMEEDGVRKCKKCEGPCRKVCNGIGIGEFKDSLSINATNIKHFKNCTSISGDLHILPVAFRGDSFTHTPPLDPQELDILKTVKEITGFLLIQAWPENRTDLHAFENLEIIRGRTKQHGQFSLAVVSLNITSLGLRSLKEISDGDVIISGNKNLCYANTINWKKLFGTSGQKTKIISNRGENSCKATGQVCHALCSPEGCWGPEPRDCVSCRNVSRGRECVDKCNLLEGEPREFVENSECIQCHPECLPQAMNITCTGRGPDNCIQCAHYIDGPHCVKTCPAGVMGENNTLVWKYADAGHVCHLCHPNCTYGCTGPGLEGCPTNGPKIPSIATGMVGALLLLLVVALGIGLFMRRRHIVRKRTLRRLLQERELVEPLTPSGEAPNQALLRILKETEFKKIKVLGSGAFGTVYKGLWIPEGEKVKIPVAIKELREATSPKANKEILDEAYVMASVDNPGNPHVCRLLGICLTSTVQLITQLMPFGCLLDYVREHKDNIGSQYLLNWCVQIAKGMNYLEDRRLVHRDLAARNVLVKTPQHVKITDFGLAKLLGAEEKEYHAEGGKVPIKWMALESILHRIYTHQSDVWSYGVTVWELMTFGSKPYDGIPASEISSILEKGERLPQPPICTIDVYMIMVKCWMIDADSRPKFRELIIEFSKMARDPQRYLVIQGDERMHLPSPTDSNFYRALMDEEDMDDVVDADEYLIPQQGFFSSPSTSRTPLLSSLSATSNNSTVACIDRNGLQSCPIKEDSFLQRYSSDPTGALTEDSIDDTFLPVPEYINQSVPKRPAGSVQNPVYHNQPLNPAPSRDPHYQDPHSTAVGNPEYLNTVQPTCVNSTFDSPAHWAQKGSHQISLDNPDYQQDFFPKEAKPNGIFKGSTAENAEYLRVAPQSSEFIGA
# experiment: EGFR activity: Ba/F3 cell viability (CellTiter-Glo, 72 h), EGFR exon 20 NPG insertion
# condition-details: EGFR exon 20 NPG Ins D770_N771, cell viability, read-out: BaF3 NPG IC50

# compound, target-of-assay, IC50
rows = [
    ("C=C(F)C(=O)NC(C)(C)C#Cc1cnccc1-c1[nH]c2c(c1Nc1cccc(F)c1OC)C(=O)NCC2 [compound 389]", "Ba/F3 cells with EGFR exon 20 NPG Ins D770_N771 (Homo sapiens, UniProt P00533, INS770NPG)", "< 0.1 µM"),
    ("CC#CC(=O)N1CCOC[C@H]1COc1cnccc1-c1[nH]c2c(c1Nc1cccc(F)c1OC)C(=O)NCC2 [compound 292]", "Ba/F3 cells with EGFR exon 20 NPG Ins D770_N771 (Homo sapiens, UniProt P00533, INS770NPG)", "0.1 to 1 µM"),
    ("COc1c(F)cccc1Nc1c(-c2ccncc2OCc2ncco2)[nH]c2c1C(=O)NCC2 [Compound 474]", "Ba/F3 cells with EGFR exon 20 NPG Ins D770_N771 (Homo sapiens, UniProt P00533, INS770NPG)", "> 1 µM"),
    ("COc1c(F)cccc1Nc1c(-c2ccncc2C#CC(C)(C)NC(=O)/C=C/CN[C@@H]2CCOC2)[nH]c2c1C(=O)NCC2 [compound 394]", "Ba/F3 cells with EGFR exon 20 NPG Ins D770_N771 (Homo sapiens, UniProt P00533, INS770NPG)", "0.1 to 1 µM"),
    ("CC#CC(=O)N1CC[C@@]1(C)COc1cnccc1-c1[nH]c2c(c1Nc1cccc(Cl)c1OC)C(=O)NCC2 [compound 358]", "Ba/F3 cells with EGFR exon 20 NPG Ins D770_N771 (Homo sapiens, UniProt P00533, INS770NPG)", "0.1 to 1 µM"),
]

Recall and state the measured IC50 for COc1c(Cl)cccc1Nc1c(-c2ccncc2C#C[C@@H]2CCN2C(=O)/C=C/CN(C)C)[nH]c2c1C(=O)NCC2 [compound 457] . < 0.1 µM

Output measured IC50 for this item: C=CC(=O)NC1(C#Cc2cnccc2-c2[nH]c3c(c2Nc2cccc(F)c2OC)C(=O)NCC3)CCOCC1 [compound 383] < 0.1 µM

For the compound COc1c(Cl)cccc1Nc1c(-c2ccncc2C#CC23CC(CN2C(=O)/C=C/CN(C)C)C3)[nH]c2c1C(=O)NCC2 [compound 436] , give its reported IC50. < 0.1 µM

Return reported IC50. Input compound: COc1c(Cl)cccc1Nc1c(-c2ccncc2OC[C@H]2CCCN2C(C)=O)[nH]c2c1C(=O)NCC2 [Compound 141b] > 1 µM

Provide measured IC50 value, entry: COc1c(F)cccc1Nc1c(-c2ccncc2C#C[C@@]2(C)CCCN2C(=O)/C=C/CN2CC(F)(F)C2)[nH]c2c1C(=O)NCC2 [compound 445] 0.1 to 1 µM

State its IC50: COc1c(F)cccc1Nc1c(-c2ccncc2OCCc2ccco2)[nH]c2c1C(=O)NCC2 [Compound 483] < 0.1 µM

Hello, please tell me recorded IC50 for this one: C=CC(=O)NC(C)(C)COc1cnccc1-c1[nH]c2c(c1Nc1cccc(Cl)c1OC)C(=O)NCC2 [compound 448] < 0.1 µM

Using the record for COc1c(Cl)cccc1Nc1c(-c2ccncc2C#C[C@@]2(C)CCCN2C(=O)C#CCN(C)C)[nH]c2c1C(=O)NCC2 [compound 433] , state its measured IC50. < 0.1 µM

Supply measured IC50 of COc1c(F)cccc1Nc1c(-c2ccncc2OCc2csc3nccn23)[nH]c2c1C(=O)NCC2 [Compound 130] in your reply. > 1 µM
